Tested on: RPMI-8226 leukemia
Protocol details: NCI tumour cell line growth inhibition, 48 h; in the data active = GI50 below about 0.43 µM; inactive = the rest
Write down the outcome that applies. Available outcomes: label 1 (active), label 0 (inactive)

# example entries with known answers
compound="COc1cc(C2NC(=O)C(C#N)=C(Nc3cccc(C)c3)S2)ccc1O (stereo unspecified)" tested_system="RPMI-8226 leukemia" group="label 0"
compound=Cc1ccc(-c2nc3sc(C)cn3c2/C=C2\C(=O)Nc3ccc(Cl)cc32)cc1 tested_system="RPMI-8226 leukemia" group="label 0"
compound=CC(=O)[CH-]C(=O)c1ccccc1.CC(=O)[CH-]C(=O)c1ccccc1.CC(=O)[CH-]C(=O)c1ccccc1.[Ga+3] tested_system="RPMI-8226 leukemia" group="label 0"
compound="COc1ccc2nc3ccccc3c(NCCNCC(C)O)c2c1 (stereo unspecified)" tested_system="RPMI-8226 leukemia" group="label 1"

Attention now shifts to the item below.
Data request: Recorded call for COc1ccc2c3/c(=C\c4ccc(N(C)C)cc4)c4ccccc4n3[n+](C)c2c1 ?
Data returned: label 1

----------
Tested on: RPMI-8226 leukemia
Protocol details: NCI tumour cell line growth inhibition, 48 h
Parameter measured: TGI

compound=CCOC(=O)NN(C(=O)OCC)C(C(=O)c1ccccc1)N(NC(=O)OCC)C(=O)OCC tested_system="RPMI-8226 leukemia" parameter_measured=TGI assay_value="> 100 µM"
compound="COc1cc(C2NC(=O)C(C#N)=C(Nc3cccc(C)c3)S2)ccc1O (configuration not stated)" tested_system="RPMI-8226 leukemia" parameter_measured=TGI assay_value="> 100 µM"
compound=Cn1c(=O)c2[nH]c(SC/C(=N/O)c3ccc(Br)cc3)nc2n(C)c1=O tested_system="RPMI-8226 leukemia" parameter_measured=TGI assay_value="> 100 µM"
compound=O=C1NC(=NCCc2ccc(Br)cc2)S/C1=C\c1ccc2ncccc2c1 tested_system="RPMI-8226 leukemia" parameter_measured=TGI assay_value="> 25 µM"
compound=COc1cc(O)c(Cc2ccccc2O)c(O)c1C(=O)CCc1ccccc1 tested_system="RPMI-8226 leukemia" parameter_measured=TGI assay_value="9.8 µM"

Let us examine a further case.
Data request: So what's the measured TGI for this one? COC1/C(=C\C(C)=O)c2ccccc2N1C(C)=O (configuration not stated)
Data returned: > 100 µM

----------
Tested on: SNB-19 CNS
Protocol details: NCI tumour cell line growth inhibition, 48 h
Parameter measured: TGI (µM)
The reply should be a number in µM, with the unit left off.

compound=CCSc1nc(N/N=C/c2cccs2)c2cnn(CO)c2n1 tested_system="SNB-19 CNS" scale_unit=µM assay_value=27.1
compound="CC(C)(C)[Si](C)(C)OC1[C@@H](COC(=O)NC(=O)CCl)O[C@@H](n2cnc3c(N)ncnc32)[C@H]1O[Si](C)(C)C(C)(C)C (some centres not stated)" tested_system="SNB-19 CNS" scale_unit=µM assay_value=14.7

Data request: So what's the measured TGI for this one? O=C1C(Cl)=C(NCCCN(CCCNC2=C(Cl)C(=O)c3ccccc3C2=O)C2=C(Cl)C(=O)c3ccccc3C2=O)C(=O)c2ccccc21
Data returned: 18.9

Data request: So what's the measured TGI for this one? COc1ccc2c(c1)-c1c(c3cc(OC)ccc3n(CCN(C)C)c1=O)C2=O
Data returned: 7.18

Data request: So what's the measured TGI for this one? COc1ccc2nc3ccccc3c(NCCNCC(C)O)c2c1 (configuration not stated)
Data returned: 10.3
